Target: T1, DLG3_1, Q92796
T1 sequence (Q92796 125-227, limits assumed, looked up): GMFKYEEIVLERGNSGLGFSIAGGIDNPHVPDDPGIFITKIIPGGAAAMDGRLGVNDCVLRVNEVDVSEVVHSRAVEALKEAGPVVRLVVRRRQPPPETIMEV
Test: holdup assay
Parameters: key: below the threshold = too weak to quantify, mostly under pKd 3.1 to 4
Settings: plain residues with an end cap or a label only (N-terminal biotin on a linker: ttds)
value-type: pKd

PFRSRSPSEV [GPR6, P46095]	below the threshold
NPDALPETLV [ARHGAP6, O43182]	below the threshold
KQVVPFSSSV [GDA, Q9Y2T3]	below the threshold

// data source = paper PMC9482650
